All figures here come from patent US10745377B2.

STUDY TARGET: CYP2C9 (Homo sapiens, UniProt P11712)
Construct: 0.1 mg/mL protein human liver microsomes (BD Gentest); tissue BD Gentest; host or cells: human liver microsomes
Sequence (P11712 whole entry): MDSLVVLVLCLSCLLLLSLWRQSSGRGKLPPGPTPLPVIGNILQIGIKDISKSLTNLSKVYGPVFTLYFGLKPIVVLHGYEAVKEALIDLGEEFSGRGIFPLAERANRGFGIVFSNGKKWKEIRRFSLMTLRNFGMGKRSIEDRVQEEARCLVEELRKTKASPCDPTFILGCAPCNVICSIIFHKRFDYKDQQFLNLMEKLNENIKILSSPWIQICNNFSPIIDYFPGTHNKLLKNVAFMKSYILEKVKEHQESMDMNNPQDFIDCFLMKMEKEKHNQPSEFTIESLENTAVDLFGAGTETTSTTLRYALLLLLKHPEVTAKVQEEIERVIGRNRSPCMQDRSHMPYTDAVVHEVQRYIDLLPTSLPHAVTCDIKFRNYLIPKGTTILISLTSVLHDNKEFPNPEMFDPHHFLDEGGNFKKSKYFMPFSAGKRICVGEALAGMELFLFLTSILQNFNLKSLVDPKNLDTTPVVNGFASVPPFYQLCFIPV
ASSAY COMMENT: Cocktail assay for CYPs in human liver microsomes: CYP2C9 (diclofenac 4′-hydroxylation)
Assay type: biochemical
ASSAY SETUP: human liver microsomes 0.1 mg/mL, 5 μM diclofenac, 10 min at 37° C., 6 concentrations up to 10 μM; read-out: IC50 (nM) CYP2C9
MEASURE: IC50 (nM)

INSERT INTO assay_data (molecule, result_operator, recorded_number) VALUES
  ('COc1ccc2nc(N3CCN(Cc4cncn4[C@H](C)c4ccc(C#N)cc4)CC3)sc2c1', '=', 6470),
  ('C[C@H](c1ccc(C#N)cc1)n1cncc1CN1CCN(c2nc3ccc(F)c(F)c3o2)CC1', '=', 2320),
  ('C[C@H](c1ccc(F)cc1)n1cncc1CN1CCN(c2nc3ccccc3o2)CC1', '=', 4370),
  ('CNc1ncc(CN2CCN(Cc3cncn3[C@H](C)c3ccc(F)cc3)CC2=O)s1', '>', 10000),
  ('C[C@H](c1ccc(C#N)cc1)n1cncc1CN1CCN(c2nc3ccccc3o2)CC1', '=', 3430),
  ('C[C@H](c1ccc(F)cc1)n1cncc1CN1CCN(Cc2cn3ccccc3n2)C(=O)C1', '>', 10000),
  ('CCc1noc(C2(C)CCN(Cc3cncn3[C@H](C)c3ccc(F)cc3)CC2)n1', '=', 2510),
  ('C[C@H](c1ccc(C#N)cc1)n1cncc1CN1CCN(c2ccccc2)C(C(=O)N2CCCCC2)C1 (single isomer, unassigned) [Compound 45a]', '=', 7770),
  ('C[C@H](c1ccc(F)cc1)n1cncc1CN1CCC(C#N)(c2ccccn2)CC1', '=', 4670),
  ('Cc1cccc2nc(N3CCN(Cc4cncn4[C@H](C)c4ccc(C#N)cc4)CC3)oc12', '=', 2490),
  ('COc1ccc(CNc2ncc(CN3CCN(Cc4cncn4[C@H](C)c4ccc(F)cc4)CC3=O)s2)c(OC)c1', '=', 8780),
  ('CC1CN(Cc2cncn2C(C)C2CCOCC2)CC(C)N1C(=O)C1(C)CC1 (stereo not drawn)', '>', 10000),
  ('C[C@H](c1ccc(F)cc1)n1cncc1CN1CCN(C(=O)c2ccccc2)C(c2ccccc2)C1 (single isomer, unassigned) [Compound 50b]', '=', 1280),
  ('C[C@H](c1ccc(C#N)cc1)n1cncc1CN1CCN(c2nc3ccc(F)cc3o2)CC1', '=', 5550),
  ('CCS(=O)(=O)c1cnc(N2CCN(Cc3cncn3[C@H](C)Cc3ccc(F)cc3)CC2)s1', '>', 10000);

---

STUDY TARGET: CYP2C9 (Homo sapiens, UniProt P11712)
Construct: 0.1 mg/mL protein human liver microsomes (BD Gentest); tissue BD Gentest; host or cells: human liver microsomes
ASSAY COMMENT: Cocktail assay for CYPs in human liver microsomes: CYP2C9 (diclofenac 4′-hydroxylation)
Format: biochemical
ASSAY SETUP: human liver microsomes 0.1 mg/mL, 5 μM diclofenac, 10 min at 37° C., 6 concentrations up to 10 μM; read-out: IC50 (nM) CYP2C9
MEASURE: IC50

INSERT INTO results (compound, result) VALUES
  ('C[C@H](c1ccc(F)cc1)n1cncc1CN1CCN(Cc2cnc(N3CCOCC3)s2)C(=O)C1 [Compound 68]', '> 10000 nM'),
  ('CCS(=O)(=O)CCc1cnc(N2CCN(Cc3cncn3[C@H](C)c3ccc(F)cc3)CC2)s1 [Compound 43]', '> 10000 nM'),
  ('COc1ccc(-c2nc(CN3CCN(Cc4cncn4[C@H](C)c4ccc(F)cc4)CC3=O)no2)cc1 [Compound 64]', '2860 nM'),
  ('CC(=O)N1CCN(Cc2cncn2[C@H](C)c2ccc(F)cc2)CC1c1ccccc1 (stereo partly shown) [Compound 51]', '> 10000 nM');

---

STUDY TARGET: CYP2C19 (Homo sapiens)
Construct: 0.1 mg/mL protein human liver microsomes (BD Gentest); tissue BD Gentest; host or cells: human liver microsomes
ASSAY COMMENT: Cocktail assay for CYPs in human liver microsomes: CYP2C19 (mephenytoin 4′-hydroxylation)
Type: biochemical
ASSAY SETUP: human liver microsomes 0.1 mg/mL, 30 μM mephenytoin, 10 min at 37° C., 6 concentrations up to 10 μM; read-out: IC50 (nM) CYP2C19
MEASURE: IC50 (nM)

INSERT INTO results (compound, unit_of_measure, result_operator, recorded_number) VALUES
  ('C[C@H](c1ccc(F)cc1)n1cncc1CN1CCN(C(=O)C2(C)CC2)C(c2ccc(N(C)C)cc2)C1 (some centres unmarked)', 'nM', '=', 2640),
  ('Cc1noc(C2(C)CCN(Cc3cncn3[C@H](C)c3ccc(F)cc3)CC2)n1', 'nM', '=', 7020),
  ('C[C@H](c1ccc(F)cc1)n1cncc1CN1CCC(C#N)(C2CCOCC2)CC1', 'nM', '>', 10000),
  ('COc1ccc(CNc2ncc(CN3CCN(Cc4cncn4[C@H](C)c4ccc(F)cc4)CC3=O)s2)c(OC)c1', 'nM', '=', 1340),
  ('CC(=O)N1CCN(Cc2cncn2[C@H](C)c2ccc(F)cc2)CC1c1ccccc1 (some centres unmarked)', 'nM', '>', 10000),
  ('C[C@H](c1ccc(C#N)cc1)n1cncc1CN1CCN(c2nc3ccc(F)cc3o2)CC1', 'nM', '=', 8400),
  ('CC(C1CCOCC1)n1cncc1CN1CCN(c2nc3ccccc3o2)CC1 (centres unmarked)', 'nM', '>', 10000),
  ('CC(c1ccccc1-c1ccc(F)cc1)n1cncc1CN1CCCNC(=O)C1 (centres unmarked)', 'nM', '=', 4790);

---

STUDY TARGET: CYP3A4 (Homo sapiens)
Construct: 0.1 mg/mL protein human liver microsomes (BD Gentest); tissue BD Gentest; host or cells: human liver microsomes
Sequence (P08684 whole entry): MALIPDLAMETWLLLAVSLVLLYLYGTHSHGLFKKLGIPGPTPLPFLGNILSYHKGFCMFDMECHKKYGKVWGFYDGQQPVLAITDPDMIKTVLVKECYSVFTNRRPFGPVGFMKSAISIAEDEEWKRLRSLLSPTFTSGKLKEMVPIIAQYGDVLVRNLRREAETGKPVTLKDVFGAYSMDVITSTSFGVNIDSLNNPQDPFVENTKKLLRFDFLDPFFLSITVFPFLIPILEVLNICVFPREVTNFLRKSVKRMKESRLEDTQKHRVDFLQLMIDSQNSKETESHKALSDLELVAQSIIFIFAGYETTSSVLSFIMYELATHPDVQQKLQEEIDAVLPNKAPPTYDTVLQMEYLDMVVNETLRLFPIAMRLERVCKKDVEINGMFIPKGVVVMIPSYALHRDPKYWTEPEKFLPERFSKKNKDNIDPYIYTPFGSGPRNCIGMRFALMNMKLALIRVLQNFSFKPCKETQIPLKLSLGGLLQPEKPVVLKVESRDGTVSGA
ASSAY COMMENT: Cocktail assay for CYPs in human liver microsomes: CYP3A4 (midazolam 1′-hydroxylation)
Assay type: biochemical
ASSAY SETUP: human liver microsomes 0.1 mg/mL, 2 μM midazolam, 10 min at 37° C., 6 concentrations up to 10 μM; read-out: IC50 (nM) CYP3A4
MEASURE: IC50

INSERT INTO assay_data (molecule, measure, result) VALUES
  ('CC(=O)N1CCN(Cc2cncn2[C@H](C)c2ccc(F)cc2)CC1c1ccccc1 (some centres unmarked)', 'IC50', '22 nM'),
  ('C[C@H](c1ccc(C#N)cc1)n1cncc1CN1CCC(c2nc3ccccc3s2)CC1', 'IC50', '26 nM'),
  ('CC(C)CC1(C#N)CCN(Cc2cncn2[C@H](C)c2ccc(F)cc2)CC1', 'IC50', '22 nM'),
  ('CCC1(C#N)CCN(Cc2cncn2[C@H](C)c2ccc(F)cc2)CC1', 'IC50', '20 nM'),
  ('COc1ccc(-c2nc(CN3CCN(Cc4cncn4[C@H](C)c4ccc(F)cc4)CC3=O)no2)cc1', 'IC50', '43 nM'),
  ('C[C@H](c1ccc(C#N)cc1)n1cncc1CN1CCN(c2nc3ccc(F)cc3o2)CC1', 'IC50', '7 nM'),
  ('C[C@H](c1ccc(C#N)cc1)n1cncc1CN1CCC2(CC1)C(=O)NCN2c1ccccc1', 'IC50', '50 nM'),
  ('C[C@H](c1ccc(F)cc1)n1cncc1CN1CCC(C#N)(c2ccccn2)CC1', 'IC50', '10 nM');

---

Property: IC50; scope: individual molecules
STUDY TARGET: CYP2C19 (Homo sapiens, UniProt P33261)
Construct: 0.1 mg/mL protein human liver microsomes (BD Gentest); tissue BD Gentest; host or cells: human liver microsomes
Sequence (P33261 whole entry): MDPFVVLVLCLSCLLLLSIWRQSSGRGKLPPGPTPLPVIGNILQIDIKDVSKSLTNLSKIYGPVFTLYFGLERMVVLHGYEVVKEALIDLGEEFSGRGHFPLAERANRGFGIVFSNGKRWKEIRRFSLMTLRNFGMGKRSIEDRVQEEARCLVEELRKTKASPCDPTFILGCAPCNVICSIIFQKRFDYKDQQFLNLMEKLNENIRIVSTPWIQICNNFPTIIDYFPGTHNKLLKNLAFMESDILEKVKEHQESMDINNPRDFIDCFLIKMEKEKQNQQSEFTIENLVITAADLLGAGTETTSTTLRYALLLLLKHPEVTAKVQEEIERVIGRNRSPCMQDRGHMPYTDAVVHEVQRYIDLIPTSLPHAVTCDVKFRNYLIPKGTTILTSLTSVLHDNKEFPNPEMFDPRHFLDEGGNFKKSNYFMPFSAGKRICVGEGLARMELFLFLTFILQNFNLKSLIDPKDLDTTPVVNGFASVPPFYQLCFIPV
ASSAY COMMENT: Cocktail assay for CYPs in human liver microsomes: CYP2C19 (mephenytoin 4′-hydroxylation)
Format: biochemical
ASSAY SETUP: IC50 (nM) CYP2C19, human liver microsomes 0.1 mg/mL, 30 μM mephenytoin, 10 min at 37° C., 6 concentrations up to 10 μM
MEASURE: IC50 (nM)

INSERT INTO results (molecule_smiles, study_target, recorded_number) VALUES
  ('N#Cc1ccc(C2(n3cncc3CN3CCC(C#N)(c4ccc(F)cc4)CC3)CC2)cc1', 'CYP2C19 (Homo sapiens, UniProt P33261)', 3980),
  ('COC(=O)C1(c2ccccc2)CCN(Cc2cncn2[C@H](C)c2ccc(F)cc2)CC1', 'CYP2C19 (Homo sapiens, UniProt P33261)', 1250),
  ('C[C@H](c1ccc(F)cc1)n1cncc1CN1CCC(C#N)(c2ccccc2)CC1', 'CYP2C19 (Homo sapiens, UniProt P33261)', 2600);

---

Property: IC50; scope: individual molecules
STUDY TARGET: CYP2D6 (Homo sapiens)
Construct: 0.1 mg/mL protein human liver microsomes (BD Gentest); tissue BD Gentest; host or cells: human liver microsomes
Sequence (P10635 whole entry): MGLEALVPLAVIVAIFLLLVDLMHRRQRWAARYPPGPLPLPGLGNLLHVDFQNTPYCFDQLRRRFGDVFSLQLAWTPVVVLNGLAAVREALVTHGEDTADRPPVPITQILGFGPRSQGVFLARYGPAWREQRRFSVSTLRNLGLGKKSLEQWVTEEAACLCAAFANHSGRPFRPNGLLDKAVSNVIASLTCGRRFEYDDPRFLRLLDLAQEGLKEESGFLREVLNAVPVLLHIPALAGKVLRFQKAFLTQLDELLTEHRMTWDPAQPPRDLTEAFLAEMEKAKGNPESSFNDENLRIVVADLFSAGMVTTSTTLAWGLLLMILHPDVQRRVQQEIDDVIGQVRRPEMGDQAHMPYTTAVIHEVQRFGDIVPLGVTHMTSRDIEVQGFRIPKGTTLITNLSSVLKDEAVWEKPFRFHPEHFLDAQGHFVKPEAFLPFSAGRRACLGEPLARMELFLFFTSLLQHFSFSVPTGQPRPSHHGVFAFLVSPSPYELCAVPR
ASSAY COMMENT: Cocktail assay for CYPs in human liver microsomes: CYP2D6 (dextromethorphan O-demethylation)
Format: biochemical
ASSAY SETUP: human liver microsomes 0.1 mg/mL, 5 μM dextromethorphan, 10 min at 37° C., 6 concentrations up to 10 μM; read-out: IC50 (nM) CYP2D6
MEASURE: IC50

INSERT INTO measurements (molecule, result) VALUES
  ('CC(c1ccccc1-c1ccc(F)cc1)n1cncc1CN1CCS(=O)(=O)CC1 (stereo not drawn)', '> 10000 nM'),
  ('C[C@H](c1ccc(C#N)cc1)n1cncc1CN1CCN(c2ccccc2)C(C(=O)NC(C)(C)C)C1 (stereo partly drawn)', '> 10000 nM'),
  ('C[C@H](c1ccc(C#N)cc1)n1cncc1CN1CCN(c2ccccc2)C(C(=O)N2CCOCC2)C1 (stereo partly drawn)', '> 10000 nM'),
  ('C[C@H](c1ccc(F)cc1)n1cncc1CN1CCN(Cc2cnc(N3CCN(C)CC3)s2)C(=O)C1', '> 10000 nM'),
  ('COc1ccc(-c2nc(CN3CCN(Cc4cncn4[C@H](C)c4ccc(F)cc4)CC3=O)no2)cc1', '3110 nM'),
  ('CCS(=O)(=O)CCc1cnc(N2CCN(Cc3cncn3[C@H](C)Cc3ccc(F)cc3)CC2)s1', '2380 nM');
